experiment: soluble on expression in E. coli; label from the status in PepcDB or PDB records
ENDPOINT_NAME: soluble on expression in E. coli

Answered examples (4):
MGSDKIHHHHHHMNITASFRDASLVAFDFPEILTRISKIIDALKAHDDSLRYENWMLKGDNQEDATRYHVYDAAGIATPAALAVLREEFRNSKDFTYVAMWDGNLASDNGASISCHVGDKSLPDTLTLRIEGERWKAYAAISGIVSTMVTIFSPALVEVSFDEYAVKQVFDDKPGVGWMLYLPKVITQQQVPEARALIPVPAKGKQTGTIIISVTDAPFSVDNPEHVAIANRIEIRLVDQDLLPAYVDI not soluble
MAHHHHHHMKQVKAAFEANKRVYESVLLTFKGVDGYDVYNCSVPFSYKGKTHIYGRVEKRDIWAASHVRLFEETGKDEFTAVPELSWELEDPYIAKINNEMIFGGTRVRKNGNAILSYYGYFYRGTPDELTYFTRGPGCMKDIRVLQLQDGRLGVFSRPRVGRKASIGFVILNSIDELGAEVIAKAPPLDILSENAWGGVNQAYLLSSGKVGCIGHYSYEDTNEKQQPQSVYVNYAFVLDPQSRAITGAKIIGTKSCYPPCEPKVPLLADCVFASGIVMRSDGKVDLYSGVGDSHEGRITIDYPFKGHGTIIGDLHFPMASSL soluble
MQRMAKMKAMEKHHGYKVLTMIHRREMISLFGLPAYQSIDEEDAEQVLRWIRKYRDYPLELILHTPGGQLHASIQIARALKNHPKKTRVLIPHYSMSGGTIIALAADEIVMDKDAVIGPIDPQVGDPIRGVFPAPSWIHAAETKKEDADDSTLVMSDISRKALRLTRNVAKELLEGKIQPDGKEDRLEEVVEKLVSGEMIHSTPLSAREAKELGLSVNTDFPEDVHDFMRLFRPVKKTVEYVG not soluble
MGSDKIHHHHHHMPAKVYFTDMTTNPNMNMLQKLELLLKKVELEKIIEKDKFVAVKLHFGEYGNLAFIRPQYVKIIVDQIKKLGGKPFLTDANTLYTGHRSNAVDHLINAYLNGFTYEVTGAPVIIADGLRGSDEIKVKIDGNYVKEAKIGAAIALADAIVAVTHFKGHEATGFGGTIKNVGMGSASRAGKMEQHSESKPYVVEEKCVACGTCAKFCPVGAITVTKVAKIDYEKCIGCGQCIAMCSYGAMSPKWDSSTDSLSKKMAEYAKAVLKDKKAVFISFIMNISPDCDCWNMNKPPVAPDIGIAVSTDPVALDQACIDLVLQKTGKDPFLEVHPDVTWKTQLEYAEEIGLGTREYELVKVACDLK not soluble

What value of soluble on expression in E. coli has been recorded for this entry: MKKFLALLLSVIIVFSLTACGGKNSGNNSNNSSNNNSSNNTGGKKIKIGMVTDVGGVNDGSFNQSAWEGLQRAQKELGVEVRYAESATDADYAPNIEAFIDEGYDLIICVGYMLADATRKAAEANPNQKFAIIDDASIDLPNVTCLMFEQSQASYLVGLVAGKMTKTNKVGFVVGMVSQTMNEFGYGYLAGVKDANPNATILQFNANSFSSTETGKSAATTMITNGADVIFHAAGGTGLGVIEGCKDAGKWAIGVDSDQSPLAPENILTSAMKRVDNACFDIAKAVKEGNVKPGIITYDLKSAGVDIAPTTTNLPKEVLDYVNQAKQDIINGKITVPKTKAEFEAKYGNIYELDD
soluble
